B1: PLD5 (parent)
chain: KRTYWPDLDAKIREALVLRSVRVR

- Variants of: B1
- Assay details: protein stability index of a GFP-peptide fusion (GPS, HEK-293T) (PSI 1-6); higher = more stable;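 note: lentivirally expressed fusions sorted by FACS into six bins by GFP to DsRed ratio, PSI derived from sequencing read proportions per bin multiplied by bin number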
- Experimental conditions: c terminus: a fixed tail appended
# protein stability index >= 2 gives True, anything below gives False

K1C: False

Is the recorded value of protein stability index equal to or greater than 2 for this variant? A15E
True

Is the recorded value of protein stability index equal to or greater than 2 for this variant? K1P
False

Is the recorded value of protein stability index equal to or greater than 2 for this variant? E14T
True

Reference source: the supplement of paper PMC10567573
